Data provenance is patent US11492335B2.

molecular target: recombinant human VAP-1 (Homo sapiens); construct: purchased R&D systems; assay: Activity on recombinant human VAP-1, Amplex Red HRP-coupled hydrogen peroxide assay, benzylamine substrate; assay type: biochemical; settings: recombinant human VAP-1, benzylamine substrate; read-out: Inhibitory Activity (IC50, nM) human VAP-1
Sequence (Q16853 whole entry): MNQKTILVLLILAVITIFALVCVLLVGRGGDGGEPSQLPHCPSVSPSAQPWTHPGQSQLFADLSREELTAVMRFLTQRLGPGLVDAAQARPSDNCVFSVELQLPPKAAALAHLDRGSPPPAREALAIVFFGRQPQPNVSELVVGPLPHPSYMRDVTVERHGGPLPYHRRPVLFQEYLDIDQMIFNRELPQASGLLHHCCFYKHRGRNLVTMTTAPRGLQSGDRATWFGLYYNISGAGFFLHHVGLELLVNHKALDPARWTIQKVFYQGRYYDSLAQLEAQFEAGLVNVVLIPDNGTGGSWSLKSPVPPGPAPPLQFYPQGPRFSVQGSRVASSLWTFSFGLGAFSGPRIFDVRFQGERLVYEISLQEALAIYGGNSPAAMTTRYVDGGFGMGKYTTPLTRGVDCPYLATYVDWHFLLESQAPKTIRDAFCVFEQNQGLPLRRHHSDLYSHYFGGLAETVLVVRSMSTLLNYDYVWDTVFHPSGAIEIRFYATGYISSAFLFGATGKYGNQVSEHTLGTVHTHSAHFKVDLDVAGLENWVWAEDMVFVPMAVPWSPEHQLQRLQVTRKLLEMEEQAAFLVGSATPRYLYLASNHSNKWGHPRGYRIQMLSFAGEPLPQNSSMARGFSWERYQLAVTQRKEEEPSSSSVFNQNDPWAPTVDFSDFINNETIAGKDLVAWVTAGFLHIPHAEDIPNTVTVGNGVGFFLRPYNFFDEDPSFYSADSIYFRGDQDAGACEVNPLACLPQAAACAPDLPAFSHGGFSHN
Where a name gives a salt, the structure may show the parent alone.
reported_metric: IC50 (nM)

[[record]]
molecule = "Cn1cncc1C#Cc1cccc(-n2cnn(C/C(=C/F)CN)c2=O)n1"
value_measured = 0.3

[[record]]
molecule = "Cc1ccc(-c2ccc(C(=O)N3CCOCC3)cc2)nc1-n1cnn(C/C(=C/F)CN)c1=O [Example 211, hydrochloride]"
value_measured = 49

[[record]]
molecule = "NC/C(=C\\F)Cn1ncn(-c2cccc(C#Cc3ccc4c(n3)OCCN4)n2)c1=O"
value_measured = 0.5

[[record]]
molecule = "CS(=O)(=O)c1ccc(-c2cnc(-n3cnn(C/C(=C\\F)CN)c3=O)s2)cc1 [Example 226, hydrochloride]"
value_measured = 1.4

[[record]]
molecule = "NC/C(=C\\F)Cn1ncn(-c2ncc(-c3ccc(-c4nnc[nH]4)cc3)s2)c1=O"
value_measured = 0.61


[I] CN(C)c1cccc(-c2cccc(-n3cnn(C/C(=C/F)CN)c3=O)n2)c1 [Example 174, hydrochloride]
[II] NC/C(=C/F)Cn1ncn(-c2ncc(-c3ccc4c(c3)OCO4)s2)c1=O [Example 232, hydrochloride]
[III] NC/C(=C\F)Cn1ncn(-c2cccc(-c3ccc(-c4noc(C5CC5)n4)cc3)n2)c1=O [Example 178, hydrochloride]
Your job: order these 3 records by IC50, ascending. # list labels per requested ordering
II, III, I
(II: 0.78 nM, III: 1.4 nM, I: 2.2 nM)

[P] CC(=O)Nc1cc(-c2cnc(-n3cnn(C/C(=C/F)CN)c3=O)cn2)ccn1
[Q] Cc1ccc(-c2cc(C)c3c(c2)CCC(=O)N3)nc1-n1cnn(C/C(=C/F)CN)c1=O [Example 215, hydrochloride]
Form: Entry with minimum IC50 (choose one): P / Q Lab log: write the label of the selected item as the result.
P
(P: 1.8 nM, Q: 14 nM)

* * *

IC50 reference
target: recombinant human DAO (diamine oxidase) (Homo sapiens, UniProt P19801); construct: purchased R&D systems; test: Activity on recombinant human DAO, Amplex Red method, 1 mM putrescine substrate; format: biochemical; settings: recombinant human DAO, 1 mM putrescine substrate; read-out: Inhibitory Activity (IC50, nM) DAO
Sequence (P19801 20-751): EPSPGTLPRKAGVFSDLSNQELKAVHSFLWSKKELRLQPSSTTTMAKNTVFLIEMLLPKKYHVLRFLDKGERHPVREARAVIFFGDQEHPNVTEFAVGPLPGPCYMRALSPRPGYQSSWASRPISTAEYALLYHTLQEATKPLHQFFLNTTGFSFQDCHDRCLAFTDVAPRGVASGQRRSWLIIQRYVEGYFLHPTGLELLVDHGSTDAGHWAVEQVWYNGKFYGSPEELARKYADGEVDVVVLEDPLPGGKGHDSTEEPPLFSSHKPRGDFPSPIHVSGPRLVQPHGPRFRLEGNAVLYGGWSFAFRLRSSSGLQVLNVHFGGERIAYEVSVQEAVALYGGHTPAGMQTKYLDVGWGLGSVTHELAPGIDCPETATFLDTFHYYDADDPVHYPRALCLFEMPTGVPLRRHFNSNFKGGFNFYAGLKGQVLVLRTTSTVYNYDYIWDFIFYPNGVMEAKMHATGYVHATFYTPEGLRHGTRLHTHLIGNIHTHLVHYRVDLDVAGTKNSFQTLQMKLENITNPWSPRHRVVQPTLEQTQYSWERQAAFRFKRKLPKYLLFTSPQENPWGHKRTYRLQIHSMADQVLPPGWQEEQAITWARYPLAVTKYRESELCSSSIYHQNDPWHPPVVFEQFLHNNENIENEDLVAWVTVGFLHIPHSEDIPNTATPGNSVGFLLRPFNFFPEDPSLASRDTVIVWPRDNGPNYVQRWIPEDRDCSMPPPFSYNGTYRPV

Recorded IC50 for Cc1cc(-n2cnn(C/C(=C/F)CN)c2=O)ncc1-c1cccc(-c2nc[nH]n2)c1 [Example 158] , please?
< 100 nM

Recorded IC50 for NC/C(=C\F)Cn1ncn(-c2cnc(-c3ccc4cn[nH]c4c3)cn2)c1=O [Example 223] , please?
< 100 nM

Recorded IC50 for Cc1cc(-n2cnn(C/C(=C/F)CN)c2=O)ncc1-c1ccc2cn[nH]c2c1 [Example 160] , please?
< 100 nM

Recorded IC50 for NC/C(=C\F)Cn1ncn(-c2cccc(-c3ccc(N4CCOCC4)nc3)n2)c1=O [Example 189] , please?
< 30 nM

Recorded IC50 for NC/C(=C\F)Cn1ncn(-c2cnc(-c3cccc(-c4nc[nH]n4)c3)cn2)c1=O [Example 219] , please?
< 100 nM

Recorded IC50 for CC(=O)Nc1nc2cc(-c3cnc(-n4cnn(C/C(=C/F)CN)c4=O)cn3)ccc2s1 [Example 225] , please?
< 100 nM

Recorded IC50 for NC/C(=C\F)Cn1ncn(-c2ncc(-c3ccc(-c4ncon4)cc3)s2)c1=O [Example 229] , please?
< 100 nM

Recorded IC50 for NC/C(=C\F)Cn1ncn(-c2cc(-c3ccc4c(c3)OCCO4)ccn2)c1=O [Example 171] , please?
< 30 nM

Recorded IC50 for NC/C(=C\F)Cn1ncn(-c2cnc(-c3ccc(-c4nc[nH]n4)cc3)cn2)c1=O [Example 218] , please?
< 100 nM
